Test: Intrinsic clearance in rat liver microsomes at 0.4 mg/ml preincubated for 10 mins followed by NADPH-regenerating system addition for 60 mins and measured per mg of protein by UPLC-MS analysis
Type: ADME, Microsome
Conditions: time 70 min, read-out: CLH
parameter: microsomal CLint (µL/min/mg)
Report as a plain number; the unit µL/min/mg is understood.

Req: I would be grateful if you could share the reported microsomal CLint for O=C(Nc1cccc(Cl)c1)NC1CCN(CCC(Oc2cccc(C(F)(F)F)c2)c2ccccc2)CC1 (racemic) .
Resp: 8.94

====

System: Staphylococcus aureus
Assay: Antibacterial activity against methicillin-susceptible Staphylococcus aureus ATCC 25923 assessed as inhibition of bacterial growth incubated for 18 hrs by broth microdilution method
Assay type: functional
parameter: MIC (µg/mL)
Give the quantity in µg/mL, number only.

Req: # input molecule: O=C(Nc1cccc(Cl)c1)NC1CCN(CCC(Oc2ccccc2F)c2ccccc2)CC1 (racemic) ; wanted: its MIC
Resp: 12.5

Req: Look at this molecule and give its reported MIC. O=C(Nc1cccc(Cl)c1)NC1CCN(CCC(Oc2ccc(C(F)(F)F)cc2)c2ccccc2)CC1 (centres undefined)
Resp: 0.78

Req: Given O=C(Nc1cccc(Cl)c1)NC1CCN(CCC(Oc2ccc(F)cc2)c2ccccc2)CC1 (racemic) , state its recorded MIC.
Resp: 6.25

Req: What value of MIC has been recorded for this entry: O=C(Nc1cccc(Cl)c1)NC1CCN(CCC(Oc2cccc(C(F)(F)F)c2)c2ccccc2)CC1 (racemic)
Resp: 3.12

====

Tested on: Enterococcus faecium
Test: Antibacterial activity against vancomycin-resistant Enterococcus faecium assessed as inhibition of bacterial growth incubated for 18 hrs by broth microdilution method
Format: functional
parameter: MIC (µg/mL)
State the answer as a number, implicitly in µg/mL.

Req: MIC of O=C(Nc1cccc(Cl)c1)NC1CCN(CCC(Oc2ccccc2Cl)c2ccccc2)CC1 (racemic) on Enterococcus faecium?
Resp: 6.25

Req: Give the reported MIC for O=C(Nc1cccc(Cl)c1)N[C@@H]1CCN(CCC(Oc2ccc(C(F)(F)F)cc2)c2ccccc2)C1 (some centres undefined) (system: Enterococcus faecium).
Resp: 1.56

Req: GET /values?readout=MIC&system=Enterococcus faecium&item= O=C(O)c1cn(C2CC2)c2cc(N3CCNCC3)c(F)cc2c1=O
Resp: 0.78

Req: Param readout = MIC; param system = Enterococcus faecium; param query = O=C(NCC1CCN(CCC(Oc2ccc(C(F)(F)F)cc2)c2ccccc2)CC1)Nc1cccc(Cl)c1 (racemic) ; response: value
Resp: 0.78

====

System: Staphylococcus epidermidis
Assay: Antibacterial activity against biofilm producer Staphylococcus epidermidis ATCC 35984 assessed as inhibition of bacterial growth incubated for 18 hrs by broth microdilution method
Assay type: functional
Would you mind telling me the reported MIC of each entry?
Lab book: enter the figure in µg/mL, no units written.

Req: // query MIC value for entry O=C(Nc1cccc(Cl)c1)NC1CCN(CCC(Oc2cccc(F)c2)c2ccccc2)CC1 (racemic)
Resp: 3.12

Req: Entry O=C(Nc1cccc(F)c1)NC1CCN(CCC(Oc2ccc(C(F)(F)F)cc2)c2ccccc2)CC1 (stereo not drawn) has what MIC?
Resp: 3.12

Req: // query MIC value for entry O=C(Nc1cccc(Cl)c1)NC1CCN(CCC(Oc2cccc(Cl)c2)c2ccccc2)CC1 (racemic)
Resp: 1.56

Req: Quick one: MIC of O=C(Nc1cccc(Cl)c1)NC1CCN(CCC(Oc2ccccc2)c2ccccc2)CC1 (racemic) ?
Resp: 3.12

Req: Bench note: what MIC did O=C(NCC1CCN(CCC(Oc2ccc(Cl)cc2)c2ccccc2)CC1)Nc1cccc(Cl)c1 (racemic) show?
Resp: 3.12

Req: Please give the measured MIC for this compound: O=C(Nc1cccc(Cl)c1)N[C@H]1CCN(CCC(Oc2cccc(Cl)c2)c2ccccc2)C1 (stereo partly drawn)
Resp: 3.12

Req: // query MIC value for entry O=C(Nc1cccc(Cl)c1)N[C@H]1CCN(CCC(Oc2ccc(Cl)cc2)c2ccccc2)C1 (stereo partly drawn)
Resp: 3.12

Req: Any idea what MIC was measured for O=C(Nc1ccc(F)cc1)NC1CCN(CCC(Oc2ccc(C(F)(F)F)cc2)c2ccccc2)CC1 (racemic) ?
Resp: 3.12

Req: MIC lookup needed for O=C(Nc1cccc(Cl)c1)NC1CCN(CCC(Oc2ccccc2F)c2ccccc2)CC1 (racemic) , thanks.
Resp: 12.5

Req: MIC for O=C(Nc1cccc(Cl)c1)N[C@H]1CCN(CCC(Oc2ccc(C(F)(F)F)cc2)c2ccccc2)C1 (stereo partly drawn) ?
Resp: 3.12

Req: Which value of MIC has been reported for O=C(Nc1ccccc1)NC1CCN(CCC(Oc2ccc(C(F)(F)F)cc2)c2ccccc2)CC1 (racemic) in the records?
Resp: 12.5

Req: Using the record for COc1cccc(OC(CCN2CCC(NC(=O)Nc3cccc(Cl)c3)CC2)c2ccccc2)c1 (racemic) , report its MIC.
Resp: 6.25

Req: Given the entry O=C(Nc1ccc(Cl)cc1)NC1CCN(CCC(Oc2ccc(C(F)(F)F)cc2)c2ccccc2)CC1 (racemic) , report its measured MIC.
Resp: 3.12

Req: Recorded MIC of O=C(O)c1cn(C2CC2)c2cc(N3CCNCC3)c(F)cc2c1=O [CIPROFLOXACIN] , please.
Resp: 0.78

Req: Requested field: MIC. Item: CN[C@H](CC(C)C)C(=O)N[C@H]1C(=O)N[C@@H](CC(N)=O)C(=O)N[C@H]2C(=O)N[C@H]3C(=O)N[C@H](C(=O)N[C@H](C(=O)O)c4cc(O)cc(O)c4-c4cc3ccc4O)[C@H](O)c3ccc(c(Cl)c3)Oc3cc2cc(c3O[C@@H]2O[C@H](CO)[C@@H](O)[C@H](O)[C@H]2O[C@H]2C[C@](C)(N)[C@H](O)[C@H](C)O2)Oc2ccc(cc2Cl)[C@H]1O [VANCOMYCIN]
Resp: 0.78

Req: What measured MIC goes with COc1ccc(OC(CCN2CCC(NC(=O)Nc3cccc(Cl)c3)CC2)c2ccccc2)cc1 (racemic) ?
Resp: 6.25

Req: For the compound shown here, O=C(NCC1CCN(CCC(Oc2ccc(C(F)(F)F)cc2)c2ccccc2)CC1)Nc1cccc(Cl)c1 (racemic) , give the reported MIC.
Resp: 1.56

Req: Fill in the blank: the reported MIC of O=C(Nc1cccc(Cl)c1)N[C@@H]1CCN(CCC(Oc2ccc(C(F)(F)F)cc2)c2ccccc2)C1 (stereo partly drawn) is ____.
Resp: 1.56

Req: If you can, please state the reported MIC value of O=C(NCC1CCN(CCC(Oc2cccc(Cl)c2)c2ccccc2)CC1)Nc1cccc(Cl)c1 (racemic) .
Resp: 3.12

Req: What MIC value was documented for this compound, COc1ccccc1OC(CCN1CCC(NC(=O)Nc2cccc(Cl)c2)CC1)c1ccccc1 (stereo not drawn) ?
Resp: 12.5

Req: Please give the measured MIC for this compound: O=C(Nc1cccc(Cl)c1)NC1CCN(CCC(Oc2ccc(F)cc2)c2ccccc2)CC1 (racemic)
Resp: 3.12
